Source of measurements: PubChem BioAssay AID330

Tested on: P388 leukemia ip, CD2F1 mice, survival T/C
test_method_notes: NCI In Vivo Anticancer Drug Screen. Data for tumor model P388 Leukemia (intraperitoneal) in CD2F1 (CDF1) mice
condition_label: endpoint: median survival time; dose: 20.0 mg/kg/injection; schedule: Q01DX009 (ip); vehicle: saline; higher = longer survival
Inconclusive results and toxic doses are left out.
# key: entry, value: T/C
test_readout: T/C

>  <compound>
Nc1nc(-c2ccccc2)nc(-c2ccccc2)n1

>  <result>
100 % of control

$$$$
>  <compound>
CCC1CN2C(=N1)c1ccccc1-c1cc(Cl)ccc12 (centres undefined)

>  <result>
117 % of control

$$$$
>  <compound>
C1CN1P1(N2CC2)=NP(N2CC2)(N2CC2)=NP(N2CC2)(N2CC2)=N1

>  <result>
122 % of control

$$$$
>  <compound>
COc1cc2c(cc1OC)C[N+]1(C)CCc3cc(OC)c(OC)cc3C1C2 (centres undefined)

>  <result>
111 % of control

$$$$
